molecular target: TbRAP1 639-761 5A (Trypanosoma brucei, UniProt C1JEX5 639-761, R737A;K738A;R739A;R740A;R741A); experiment: fluorescence polarization; EMSA: 20 mM HEPES pH 7.9, 235 mM KCl, 1 mM MgCl2, 0.1 mM EDTA, 100 ng/ul BSA, 5% glycerol, 1 mM DTT, room temp 30 min; FP: 20 mM sodium phosphate pH 7.0, 50 mM; conditions: protein: recombinant; label: 5' 6-FAM
pKd: −log10 of the molar value.
metric: pKd

GET /value?item= UGAUAUAUUUUAACAC (ssRNA) [6-FAM-16-VSG-UTR] &field=pKd returns ~3.01
